Target: T1, BsoBI D246E (UniProt P70985 P70985:1-323, D246E)
T1 sequence: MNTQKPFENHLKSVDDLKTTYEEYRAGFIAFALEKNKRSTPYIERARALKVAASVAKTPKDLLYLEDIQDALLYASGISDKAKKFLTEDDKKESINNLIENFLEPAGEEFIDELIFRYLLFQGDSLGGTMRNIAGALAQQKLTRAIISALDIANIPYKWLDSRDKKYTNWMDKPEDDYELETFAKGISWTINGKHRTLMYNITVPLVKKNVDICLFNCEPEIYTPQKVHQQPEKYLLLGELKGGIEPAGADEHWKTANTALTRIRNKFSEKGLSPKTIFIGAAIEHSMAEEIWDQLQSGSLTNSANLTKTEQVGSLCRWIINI
Experiment: filter; 4 mM CaCl2; ±1578
Conditions: chain copies: 2 inferred; label: 33P 5' end
Measure: Kd (nM)
Unit nM implied. Number only.

Memo: S3 (CTCGGG/CCCGAG) (dsDNA) DNA 1: GAGTGTTATGGGTAGCTCGGGTGAAGTGGGAATATC DNA 2: GATATTCCCACTTCACCCGAGCTACCCATAACACTC , reported Kd: 42.1

// data source = patent US20050003420
